The origin of these recorded values is ChEMBL document CHEMBL1961873.

Target: Serine/threonine-protein kinase B-raf (Homo sapiens);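 further: reported value is the mean percent inhibition of BRAF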
Details: at 1 µM
MEASUREMENT KIND: inhibition (%)
Record the value in %, omitting the unit from your answer.

Asked: Give the measured inhibition of `NC(=O)c1ccc(Oc2nccc(-c3c(-c4ccc(F)cc4)ncn3C3CCNCC3)n2)cc1` .
Given back: 10.8

Asked: Request the reported inhibition associated with `O=C1Nc2ccc(I)cc2C1=Cc1cc(Br)c(O)c(Br)c1`
Given back: 15

Asked: Quick one: inhibition for `CN(C)CCOc1ccc(-c2cc(-c3ccc4c(c3)CCC4=NO)c(-c3ccncc3)o2)cc1` ?
Given back: 85

Asked: Return reported inhibition; argument: `O=C(Nc1n[nH]c2cc(-c3cc(F)ccc3F)ccc12)C1CC1`
Given back: 7.61

Asked: # input molecule: `COc1cc2ncn(-c3cc(OCc4cccs4)c(C(N)=O)s3)c2cc1OC` ; wanted: its inhibition
Given back: 0.38

Asked: Please report the recorded inhibition for `Fc1ccc(-c2ncn(C3CCNCC3)c2-c2ccnc(Oc3ccc4c(c3)OCO4)n2)cc1` .
Given back: 12.7

Asked: Please give the measured inhibition for this molecule: `C#Cc1cccc(Nc2ncnc3ccc(OCCCCNCCS(C)(=O)=O)cc23)c1`
Given back: 6.4

Asked: Can you look up the measured inhibition of `Cc1ccc(C(=O)NC(C)C)cc1-c1ccc(C(=O)NCC2CC2)cc1` for me?
Given back: -5.03

Asked: If you can, please state the reported inhibition value of `NC(=O)Cc1ccccc1Oc1nccc(-c2c(-c3ccc(F)cc3)ncn2C2CCNCC2)n1` .
Given back: 6.06

Asked: Would you kindly share the measured inhibition for `c1ccc(-c2n[nH]cc2-c2ccnc(-c3ccc(OCCN4CCOCC4)cc3)c2)nc1` ?
Given back: -2.83

Asked: Returns the measured inhibition for the input molecule. Input: `CN(c1ccc(NC(=O)Nc2c(Cl)cccc2Cl)cc1)c1ccnc(Nc2cccc(CS(C)(=O)=O)c2)n1`
Given back: 4.11

Asked: Record request: inhibition value, item `O=C1Nc2ccccc2/C1=C/Nc1ccc(-n2cncn2)cc1`
Given back: 6.87

Asked: Would you kindly share the measured inhibition for `CS(=O)(=O)CCNCc1cc(-c2cc3c(Nc4ccc(OCc5cccc(F)c5)c(Cl)c4)ncnc3s2)cs1` ?
Given back: 9.8

Asked: Can you share its inhibition? I mean this molecule: `O=C(Nc1ccc(Oc2ccc3[nH]c(NC(=O)c4ccccc4)nc3c2)cc1)Nc1cc(C(F)(F)F)ccc1F`
Given back: 33.4

Asked: Using the record for `O=C(Nc1n[nH]c2nc(-c3ccco3)ccc12)C1CC1` , report its inhibition.
Given back: 3.43

Asked: Item under review: `CN1CCN(CCCNc2nc3ccc(Oc4ccc(NC(=O)Nc5cc(C(F)(F)F)ccc5F)cc4)cc3[nH]2)CC1` . Reported inhibition?
Given back: 13.7

Asked: inhibition for `Fc1ccc(-c2ncn(CCCN3CCOCC3)c2-c2ccncc2)cc1` ?
Given back: 1.33

Asked: Quick one: inhibition of `CCc1nccc2c1nc(-c1nonc1N)n2CC` ?
Given back: 1.49
